measured_on: T1, AXL on A431 cells (Homo sapiens, UniProt P30530)
T1 construct: AXL-positive A431 cells were incubated; endogenous in cells; host or cells: A431
assay_overview: Antibody binding to A431 cells with or without Gas6 pre-incubation
experimental_context: pre-incubation with 10 μg/mL Gas6
Each item that follows carries a reported Antibody binding to A431 cells: EC50 in presence of Gas6 mean (s.d.).

1. IgG1-AXL-726: human IgG1,κ anti-AXL antibody, VH SEQ ID NO:31, VL SEQ ID NO:33; FN2 domain binding (antibody, V domains shown, homo sapiens) VH: QVQLQQWGAGLLKPSETLSLTCAIDGGSFSGYYWSWIRQPPGKGLEWIGEISHSGRTNYNPSLKSRVTISIDTSKNQFSLKLSSVAAADTAVYYCARFITMIRGAIITHFDYWGQGALVTVSS VL: DIQMTQSPSSLSASVGDRVTITCRASQGISSWLAWYQQKPEKAPKSLIYAASSLQSGVPSRFSGSGSGTDFTLTISSLQPEDFATYYCQQYHSYPYTFGQGTKLEIK
0.55 (0.69) μg/mL

Then there is this molecule:
Incoming: Tell us which Antibody binding to A431 cells: EC50 in presence of Gas6 mean (s.d.) value is on record for IgG1-AXL-183: human IgG1,κ anti-AXL antibody, VH SEQ ID NO:16, VL SEQ ID NO:18; FN1 domain binding (antibody, V domains shown, homo sapiens) VH: QVQLQQWGAGLLKPSETLSLTCAVYGGSFSGYYWSWIRQPPGKGLEWIGEINQSGSTNYNPSLKSRVTISVDTSKNQFSLKLSSVTAADTSVYYCASGNWDHFFDYWGQGTLVTVSS VL: DIQMTQSPSSVSASVGDRVTITCRASQGISSWLAWYQHKPGKAPKLLIYATSSLQSGVTSRFSGSGSGTDFTLTISSLQPEDFATYYCQQAKSFPWTFGQGTKVEIK
Outgoing: 1.19 (1.11) μg/mL

Source: patent US20200397913A1
